# Test system: Caco-2
# Method summary: cell viability relative to DMSO; higher = less toxic
# Test parameters: 72 h; 100 nM
Measure: cell viability (%)
Field: numeric (%). Do not append units.

Solved cases (5 shown):
# Compound, Target entity, cell viability (%)
data = [
    ("O=C1NC(=O)/C(=C/c2ccc3c(c2)OC(F)(F)O3)S1", "Caco-2", 84.6),
    ("COC1=C(OC)C(=O)C(CCCCCCCCCCO)=C(C)C1=O", "Caco-2", 103),
    ("Nc1nc(=O)c2nc(CNc3ccc(C(=O)N[C@@H](CCC(=O)O)C(=O)O)cc3)cnc2[nH]1", "Caco-2", 101),
    ("CC[C@H](C)C[C@H](C)CCCCCCCCC(=O)N[C@H]1C[C@@H](O)[C@@H](NCCN)NC(=O)[C@@H]2[C@@H](O)CCN2C(=O)[C@H]([C@H](O)CCN)NC(=O)[C@H]([C@H](O)[C@@H](O)c2ccc(O)cc2)NC(=O)[C@@H]2C[C@@H](O)CN2C(=O)[C@H]([C@@H](C)O)NC1=O", "Caco-2", 115),
    ("CNCCN(C)Cc1c[nH]nc1-c1ccc(O[C@H]2C[C@H](OCCC3CCOCC3)C2)cc1", "Caco-2", 107),
]

Kindly state the measured cell viability obtained for N[C@H](C(=O)O)c1ccc(O)cc1 with Caco-2.
88.6

Kindly state the measured cell viability obtained for CC(C)CC(N)=O [isovaleramide] with Caco-2.
99.1

Kindly state the measured cell viability obtained for CN(C)c1cccc(Oc2cnc(Nc3cccc(O)c3)nc2)c1 with Caco-2.
102

Kindly state the measured cell viability obtained for C#CCN[C@@H]1CCc2ccccc21 with Caco-2.
91.5

Kindly state the measured cell viability obtained for C[C@]12C=CC(=O)C=C1CC[C@@H]1[C@@H]2CC[C@]2(C)OC(=O)CC[C@@H]12 with Caco-2.
87.1

Kindly state the measured cell viability obtained for CNCCC(Oc1ccccc1OC)c1ccccc1 (stereo not drawn) with Caco-2.
109

Kindly state the measured cell viability obtained for CC(=O)OCC(=O)[C@@]1(OC(C)=O)[C@@H](C)C[C@H]2[C@@H]3C[C@H](F)C4=CC(=O)C=C[C@]4(C)[C@@]3(F)[C@@H](O)C[C@@]21C [diflorasone-diacetate] with Caco-2.
99

Kindly state the measured cell viability obtained for COc1ccc(Oc2c(Cl)cnn(C3c4ccccc4-c4ccccc43)c2=O)cc1 with Caco-2.
97
